# System: chick chorioallantoic membrane (CAM)
# Assay protocol: Chick chorioallantoic membrane (CAM) assay, CAM area
# Protocol conditions: CAM area, day 5-6 CAMs, 24 hours
Cut-off 50000 nM on LOAEL (Molar): below means label 1, at or above means label 0.

**Query** Say whether its LOAEL (Molar) is strictly beneath 50000 nM. Entry: Cc1ccccn1
**Result** label 1

**Query** Say whether its LOAEL (Molar) is strictly beneath 50000 nM. Entry: Cn1cccc1-c1cccnc1
**Result** label 1

**Query** Say whether its LOAEL (Molar) is strictly beneath 50000 nM. Entry: Cc1cccnc1
**Result** label 1

**Query** Say whether its LOAEL (Molar) is strictly beneath 50000 nM. Entry: CN1CCCC1c1cccnc1 (stereo not shown)
**Result** label 0

**Query** Say whether its LOAEL (Molar) is strictly beneath 50000 nM. Entry: CCc1ccccn1
**Result** label 1

====

Please go through the items and note down their LOAEL.
# System: chick chorioallantoic membrane (CAM)
# Assay protocol: Chick chorioallantoic membrane (CAM) assay, CAM area
# Protocol conditions: CAM area, day 5-6 CAMs, 24 hours
Write down the numeric answer in mg/mL and omit the unit.

**Query** For c1cncc([C@@H]2CCCN2)c1 , what is its reported LOAEL?
**Result** 0.0074

**Query** For CN1CCCC1c1cccnc1 (centres unmarked) , what is its reported LOAEL?
**Result** 0.081

**Query** For C=Cc1ccncc1 , what is its reported LOAEL?
**Result** 0.00526

**Query** For CCc1cccnc1 , what is its reported LOAEL?
**Result** 5.36e-10

**Query** For Cc1cc(C)nc(C)c1 , what is its reported LOAEL?
**Result** 0.0061

====

# Test system: chick chorioallantoic membrane (CAM)
# Assay protocol: Chick chorioallantoic membrane (CAM) assay, CAM area
# Protocol conditions: CAM area, day 5-6 CAMs, 24 hours
# Experimental: The chick chorioallantoic membrane (CAM) assay is perhaps the most widely used assay for screening anti-angiogenic or growth inhibitory compounds (see, e.g. Ribatti et al., Int. J. Dev. Biol. 40:1189-1197 (1996)). Cell proliferation and angiogenesis were evaluated by measuring CAM area and BrdU labeling using the CAM assay as modified by Melkonian et al., J. Exp. Zool. (2001), in review. […] At least 6 CAMs were used in each control and experimental group. […] The data were recorded into Excel spreadsheet. […]
So basically: LOAEL at 0.005 mg/mL or higher? That is 1. Lower than 0.005 mg/mL? That is 0.

**Query** Decide: is the reported value of LOAEL for Cc1ccnc(C)c1 equal to or greater than 0.005 mg/mL?
**Result** 1

**Query** Decide: is the reported value of LOAEL for CCc1ccccn1 equal to or greater than 0.005 mg/mL?
**Result** 0

**Query** Decide: is the reported value of LOAEL for c1cc(-c2ccncc2)ccn1 equal to or greater than 0.005 mg/mL?
**Result** 1

**Query** Decide: is the reported value of LOAEL for Cc1cccnc1C equal to or greater than 0.005 mg/mL?
**Result** 1

**Query** Decide: is the reported value of LOAEL for Cn1cccc1-c1cccnc1 equal to or greater than 0.005 mg/mL?
**Result** 0

**Query** Decide: is the reported value of LOAEL for c1ccncc1 [Pyridine, pyridine, reference compound] equal to or greater than 0.005 mg/mL?
**Result** 0

====

# Test system: chick chorioallantoic membrane (CAM)
# Assay protocol: Chick chorioallantoic membrane (CAM) assay, CAM area
# Protocol conditions: CAM area, day 5-6 CAMs, 24 hours
# Method: The chick chorioallantoic membrane (CAM) assay is perhaps the most widely used assay for screening anti-angiogenic or growth inhibitory compounds (see, e.g. Ribatti et al., Int. J. Dev. Biol. 40:1189-1197 (1996)). Cell proliferation and angiogenesis were evaluated by measuring CAM area and BrdU labeling using the CAM assay as modified by Melkonian et al., J. Exp. Zool. (2001), in review. […] At least 6 CAMs were used in each control and experimental group. […] The data were recorded into Excel spreadsheet. […]
Property measured: NOAEL (Molar) (nM)
Write down the numeric answer in nM and omit the unit.

**Query** For Cc1cccnc1 [3-methylpyridine] , what is its reported NOAEL (Molar)?
**Result** 0.05

**Query** For C=Cc1ccncc1 [4-ethenylpyridine] , what is its reported NOAEL (Molar)?
**Result** 500

**Query** For CCc1cccnc1 [3-ethylpyridine] , what is its reported NOAEL (Molar)?
**Result** 0.0005

**Query** For Cc1cccnc1C [2,3-dimethylpyridine] , what is its reported NOAEL (Molar)?
**Result** 500

**Query** For CCc1ccccn1 [2-ethylpyridine] , what is its reported NOAEL (Molar)?
**Result** 0.0005

**Query** For Cn1cccc1-c1cccnc1 [b-nicotyrine, 3-(1-methylpyrrol-2-yl)pyridine] , what is its reported NOAEL (Molar)?
**Result** 5

**Query** For Cc1cc(C)nc(C)c1 [2,4,6-trimethylpyridine] , what is its reported NOAEL (Molar)?
**Result** 500

**Query** For c1ccncc1 [Pyridine, pyridine, reference compound] , what is its reported NOAEL (Molar)?
**Result** 500

**Query** For c1cncc([C@@H]2CCCN2)c1 [nornicotine, 3-(1-pyrrolidin-2-yl)pyridine] , what is its reported NOAEL (Molar)?
**Result** 5000

**Query** For c1cc(-c2ccncc2)ccn1 [4,4-bipyridine] , what is its reported NOAEL (Molar)?
**Result** 50000

**Query** For CN1CCCC1c1cccnc1 (stereo not shown) [nicotine, 1-methyl-2-(3-pyridyl)pyrrolidine] , what is its reported NOAEL (Molar)?
**Result** 50000

**Query** For Cc1ccccn1 [2-methylpyridine] , what is its reported NOAEL (Molar)?
**Result** 0.05

**Query** For Cc1ccnc(C)c1 [2,4-dimethylpyridine] , what is its reported NOAEL (Molar)?
**Result** 500

Measured values drawn from patent US20030064989A1 for this set.
